# assay-notes: Solubility of CD101 acetate in various media
# Format: physicochemical
# recorded-conditions: 0.9% saline with 4% dodecylmaltoside and 1% Tween 20, aqueous with cosolvent or surfactant or cyclodextrin; 0.9% Saline Solution (USP), 4% dodecylmaltoside (DDM), 1% Tween 20; maximum solubility not reached; read-out: Solubility
Starred links: 1 amine or outer side, 2 acyl side, 3 side chain; linkers in the order of their positions; H or OH if unused. Positions of bridges follow the written chain, without caps; N, C: chain ends. Non-standard residues stand in square brackets, D forms with d. Residues, ends and D or L forms follow the SMILES beside them. *: point of attachment. Orn(4R-OH,5R-OCH2CH2NMe3+) = C[N+](C)(C)CCO[C@@H](N[*:3])[C@H](O)C[C@H](N[*:1])C(=O)[*:2]; pTerphenylCO(4''-OnC5H11) = CCCCCOc1ccc(-c2ccc(-c3ccc(C(=O)*)cc3)cc2)cc1; hTyr(3S-OH,4S-OH) = N[C@H](C(=O)O)[C@H](O)[C@@H](O)c1ccc(O)cc1; Pro(3S-OH,4S-Me) = C[C@H]1CN[C@H](C(=O)O)[C@H]1O; Hyp = O=C(O)[C@@H]1C[C@@H](O)CN1
parameter: solubility

* CCCCCOc1ccc(-c2ccc(-c3ccc(C(=O)N[C@H]4C[C@@H](O)[C@@H](OCC[N+](C)(C)C)NC(=O)[C@@H]5[C@@H](O)[C@@H](C)CN5C(=O)[C@H]([C@@H](C)O)NC(=O)[C@H]([C@H](O)[C@@H](O)c5ccc(O)cc5)NC(=O)[C@@H]5C[C@@H](O)CN5C(=O)[C@H]([C@@H](C)O)NC4=O)cc3)cc2)cc1 [CD101 acetate] ({pTerphenylCO(4''-OnC5H11)}-[Orn(4R-OH,5R-OCH2CH2NMe3+)]T[Hyp][hTyr(3S-OH,4S-OH)]T[Pro(3S-OH,4S-Me)]; lactam 1-C) | > 10000 µg/mL

====

# assay-notes: Solubility of CD101 acetate in various media
# Assay type: physicochemical
# recorded-conditions: saline or isotonic; Lactated Ringer's Solution for Injection (USP); read-out: Solubility
Starred links: 1 amine or outer side, 2 acyl side, 3 side chain; linkers in the order of their positions; H or OH if unused. Positions of bridges follow the written chain, without caps; N, C: chain ends. Non-standard residues stand in square brackets, D forms with d. Residues, ends and D or L forms follow the SMILES beside them. *: point of attachment. Orn(4R-OH,5R-OCH2CH2NMe3+) = C[N+](C)(C)CCO[C@@H](N[*:3])[C@H](O)C[C@H](N[*:1])C(=O)[*:2]; pTerphenylCO(4''-OnC5H11) = CCCCCOc1ccc(-c2ccc(-c3ccc(C(=O)*)cc3)cc2)cc1; hTyr(3S-OH,4S-OH) = N[C@H](C(=O)O)[C@H](O)[C@@H](O)c1ccc(O)cc1; Pro(3S-OH,4S-Me) = C[C@H]1CN[C@H](C(=O)O)[C@H]1O; Hyp = O=C(O)[C@@H]1C[C@@H](O)CN1
parameter: solubility

- CCCCCOc1ccc(-c2ccc(-c3ccc(C(=O)N[C@H]4C[C@@H](O)[C@@H](OCC[N+](C)(C)C)NC(=O)[C@@H]5[C@@H](O)[C@@H](C)CN5C(=O)[C@H]([C@@H](C)O)NC(=O)[C@H]([C@H](O)[C@@H](O)c5ccc(O)cc5)NC(=O)[C@@H]5C[C@@H](O)CN5C(=O)[C@H]([C@@H](C)O)NC4=O)cc3)cc2)cc1 [CD101 acetate] ({pTerphenylCO(4''-OnC5H11)}-[Orn(4R-OH,5R-OCH2CH2NMe3+)]T[Hyp][hTyr(3S-OH,4S-OH)]T[Pro(3S-OH,4S-Me)]; lactam 1-C): < 100 µg/mL
